target: ErbB4 on neonatal rat cardiomyocytes (rat) (UniProt Q62956); test: cell-based or functional assay
Sequence (Q62956 26-1308): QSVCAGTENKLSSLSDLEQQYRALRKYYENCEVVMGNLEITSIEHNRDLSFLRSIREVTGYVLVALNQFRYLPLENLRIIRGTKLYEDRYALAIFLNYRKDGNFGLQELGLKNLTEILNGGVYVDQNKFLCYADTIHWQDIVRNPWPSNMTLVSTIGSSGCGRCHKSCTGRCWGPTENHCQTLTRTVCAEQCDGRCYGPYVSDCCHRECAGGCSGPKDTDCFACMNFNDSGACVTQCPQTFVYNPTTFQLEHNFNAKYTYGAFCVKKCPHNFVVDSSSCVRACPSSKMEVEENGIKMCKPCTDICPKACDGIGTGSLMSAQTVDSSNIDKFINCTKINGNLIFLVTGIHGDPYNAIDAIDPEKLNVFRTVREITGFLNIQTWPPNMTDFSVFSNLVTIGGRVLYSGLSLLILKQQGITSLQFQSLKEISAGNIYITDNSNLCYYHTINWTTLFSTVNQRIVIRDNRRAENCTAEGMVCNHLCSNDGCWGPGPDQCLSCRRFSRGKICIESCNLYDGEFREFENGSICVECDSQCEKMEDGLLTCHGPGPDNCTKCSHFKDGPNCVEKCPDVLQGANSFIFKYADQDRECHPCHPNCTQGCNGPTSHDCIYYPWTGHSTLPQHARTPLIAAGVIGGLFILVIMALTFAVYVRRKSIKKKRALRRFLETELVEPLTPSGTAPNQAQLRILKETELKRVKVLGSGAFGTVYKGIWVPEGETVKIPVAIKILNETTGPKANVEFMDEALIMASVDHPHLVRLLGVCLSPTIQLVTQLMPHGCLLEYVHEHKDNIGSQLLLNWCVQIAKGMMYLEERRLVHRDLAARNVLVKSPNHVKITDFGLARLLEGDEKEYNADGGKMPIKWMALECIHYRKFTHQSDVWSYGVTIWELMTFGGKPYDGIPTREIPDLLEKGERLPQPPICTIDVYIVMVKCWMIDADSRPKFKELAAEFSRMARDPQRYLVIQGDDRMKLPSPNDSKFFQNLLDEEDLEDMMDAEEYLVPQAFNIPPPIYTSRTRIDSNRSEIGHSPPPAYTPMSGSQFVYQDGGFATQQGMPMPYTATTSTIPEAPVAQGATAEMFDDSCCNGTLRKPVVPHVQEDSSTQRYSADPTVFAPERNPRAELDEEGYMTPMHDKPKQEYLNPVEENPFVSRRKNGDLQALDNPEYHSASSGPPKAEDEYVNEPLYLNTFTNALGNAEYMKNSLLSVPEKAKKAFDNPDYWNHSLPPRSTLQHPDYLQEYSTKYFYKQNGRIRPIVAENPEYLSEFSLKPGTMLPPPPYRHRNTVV
QUANTITY: Cardiomyocyte (CM) (ErbB4) Avg EC50

1. huNRG1(S177-Q237)(3B8)::GG::huFcSEFL2 (Pb) (Fc fusion) SHLVKCGERDKSFCVNGGECFMVERSSIPSRYLCKCPNEFTGDRCQDFFLASFYKAEELYQGGDKTHTCPPCPAPELLGGPSVFLFPPKPKDTLMISRTPEVTCVVVDVSHEDPEVKFNWYVDGVEVHNAKTKPCEEQYGSTYRCVSVLTVLHQDWLNGKEYKCKVSNKALPAPIEKTISKAKGQPREPQVYTLPPSREEMTKNQVSLTCLVKGFYPSDIAVEWESNGQPENNYKTTPPVLDSDGSFFLYSKLTVDKSRWQQGNVFSCSVMHEALHNHYTQKSLSLSPGK: 1.4 nM
